System: Escherichia coli TOP10
protocol: shrunken log2 fold change of peptide-encoding DNA abundance (4.5 h post-induction vs induction); higher = less antimicrobial activity (less host growth inhibition)
condition-set: time post-induction: 4.5 h; library: site-saturation at positions 5, 18, 19, 20

| chain-sequence | shrunken log2 fold change |
| --- | --- |
| RRIRCRPPRLPRPRPRPLVSPRP | -0.245 |
| RRIRSRPPRLPRPRPRPRCPPRP | 0.177 |
| RRIRTRPPRLPRPRPRPKKMPRP | 0.0999 |
| RRIRDRPPRLPRPRPRPHAEPRP | 0.0887 |
| RRIRTRPPRLPRPRPRPPEDPRP | -0.0168 |
| RRIRERPPRLPRPRPRPMGWPRP | -0.218 |
| RRIRTRPPRLPRPRPRPTYWPRP | -0.00518 |
| RRIRQRPPRLPRPRPRPPDQPRP | 1.82 |
| RRIRARPPRLPRPRPRPVWEPRP | 0.228 |
| RRIRKRPPRLPRPRPRPVLHPRP | 0.484 |
| RRIRPRPPRLPRPRPRPTGWPRP | 0.519 |
| RRIRKRPPRLPRPRPRPFQWPRP | 0.0233 |
| RRIRHRPPRLPRPRPRPYKIPRP | -0.373 |
| RRIRDRPPRLPRPRPRPAATPRP | 1.9 |
| RRIRDRPPRLPRPRPRPGNNPRP | -0.125 |
| RRIRTRPPRLPRPRPRPPNSPRP | 0.0134 |
| RRIRGRPPRLPRPRPRPIQIPRP | -0.0799 |
| RRIRQRPPRLPRPRPRPKWPPRP | 0.166 |
| RRIRGRPPRLPRPRPRPQNWPRP | 0.0915 |
| RRIRWRPPRLPRPRPRPHHLPRP | -0.71 |
| RRIRRRPPRLPRPRPRPPMQPRP | 0.385 |
| RRIRLRPPRLPRPRPRPNYDPRP | -0.372 |
| RRIRKRPPRLPRPRPRPRRNPRP | 0.316 |
| RRIRNRPPRLPRPRPRPFDMPRP | -0.0725 |
| RRIRFRPPRLPRPRPRPSNHPRP | -0.681 |
| RRIRCRPPRLPRPRPRPDHNPRP | -0.239 |
| RRIRRRPPRLPRPRPRPRDKPRP | 0.126 |
| RRIRERPPRLPRPRPRPTFLPRP | -0.724 |
| RRIRIRPPRLPRPRPRPFLAPRP | -0.493 |
| RRIRRRPPRLPRPRPRPGSDPRP | 0.421 |
| RRIRCRPPRLPRPRPRPHDNPRP | -0.356 |
| RRIRFRPPRLPRPRPRPKTIPRP | -0.223 |

* * *

Test system: Escherichia coli TOP10;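 further: peptides expressed intracellularly from a pBAD plasmid library in pooled LB shake-flask culture, induced with 0.3% L-arabinose, DNA abundance read by NGS, three biological replicates, DESeq2 with apeglm shrinkage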
protocol: shrunken log2 fold change of peptide-encoding DNA abundance (4.5 h post-induction vs induction); higher = less antimicrobial activity (less host growth inhibition)
condition-set: time post-induction: 4.5 h; library: site-saturation at positions 5, 18, 19, 20
Note to self: values exactly at 0.07 are Satisfied. So shrunken log2 fold change at or above 0.07 is Satisfied, below is Not satisfied.

| chain-sequence | classification |
| --- | --- |
| RRIRARPPRLPRPRPRPLMTPRP | Satisfied |
| RRIRTRPPRLPRPRPRPRAVPRP | Satisfied |
| RRIRLRPPRLPRPRPRPQSQPRP | Not satisfied |
| RRIRCRPPRLPRPRPRPLGGPRP | Satisfied |
| RRIRHRPPRLPRPRPRPMSKPRP | Not satisfied |
| RRIRCRPPRLPRPRPRPGCHPRP | Not satisfied |
| RRIRARPPRLPRPRPRPYQLPRP | Not satisfied |
| RRIRPRPPRLPRPRPRPPRMPRP | Satisfied |
| RRIRYRPPRLPRPRPRPTRCPRP | Satisfied |
| RRIRQRPPRLPRPRPRPYQHPRP | Not satisfied |
| RRIRWRPPRLPRPRPRPMRPPRP | Satisfied |
| RRIRVRPPRLPRPRPRPLCCPRP | Not satisfied |
| RRIRARPPRLPRPRPRPLDNPRP | Satisfied |
| RRIRPRPPRLPRPRPRPKPFPRP | Satisfied |
| RRIRYRPPRLPRPRPRPMQTPRP | Not satisfied |
| RRIRFRPPRLPRPRPRPMVDPRP | Not satisfied |
| RRIRSRPPRLPRPRPRPPSHPRP | Satisfied |
| RRIRERPPRLPRPRPRPVYWPRP | Satisfied |
| RRIRARPPRLPRPRPRPEVRPRP | Satisfied |
| RRIRNRPPRLPRPRPRPKVLPRP | Not satisfied |
| RRIRRRPPRLPRPRPRPGYGPRP | Satisfied |
| RRIRNRPPRLPRPRPRPIFSPRP | Not satisfied |
| RRIRSRPPRLPRPRPRPQIWPRP | Not satisfied |
| RRIRQRPPRLPRPRPRPTHQPRP | Satisfied |
| RRIRNRPPRLPRPRPRPVGWPRP | Satisfied |
| RRIRMRPPRLPRPRPRPAIDPRP | Satisfied |
| RRIRFRPPRLPRPRPRPRCAPRP | Satisfied |
| RRIRYRPPRLPRPRPRPEWDPRP | Not satisfied |
| RRIRQRPPRLPRPRPRPGPRPRP | Satisfied |
| RRIRRRPPRLPRPRPRPKMMPRP | Satisfied |
| RRIRKRPPRLPRPRPRPLFCPRP | Satisfied |
| RRIRPRPPRLPRPRPRPVMMPRP | Satisfied |
| RRIRIRPPRLPRPRPRPKVCPRP | Not satisfied |
| RRIRTRPPRLPRPRPRPYEIPRP | Not satisfied |
| RRIRGRPPRLPRPRPRPKALPRP | Satisfied |
| RRIRMRPPRLPRPRPRPSPPPRP | Satisfied |
| RRIRMRPPRLPRPRPRPWWPPRP | Satisfied |
| RRIRERPPRLPRPRPRPTEAPRP | Satisfied |
| RRIRPRPPRLPRPRPRPLNAPRP | Not satisfied |
| RRIRWRPPRLPRPRPRPDEPPRP | Not satisfied |
| RRIRIRPPRLPRPRPRPKNTPRP | Not satisfied |
| RRIRPRPPRLPRPRPRPGRLPRP | Not satisfied |
| RRIRRRPPRLPRPRPRPAGHPRP | Satisfied |
| RRIRNRPPRLPRPRPRPHLPPRP | Not satisfied |
| RRIRERPPRLPRPRPRPWCKPRP | Not satisfied |
| RRIRMRPPRLPRPRPRPCCKPRP | Not satisfied |
| RRIRARPPRLPRPRPRPRHEPRP | Satisfied |
| RRIRDRPPRLPRPRPRPTYMPRP | Not satisfied |
| RRIRIRPPRLPRPRPRPRVSPRP | Satisfied |
| RRIRTRPPRLPRPRPRPIWVPRP | Not satisfied |
| RRIRCRPPRLPRPRPRPLHMPRP | Not satisfied |
| RRIRRRPPRLPRPRPRPPHKPRP | Satisfied |
| RRIRVRPPRLPRPRPRPGRAPRP | Satisfied |
| RRIRSRPPRLPRPRPRPWRAPRP | Satisfied |
| RRIRFRPPRLPRPRPRPCMLPRP | Not satisfied |
| RRIRSRPPRLPRPRPRPPNEPRP | Not satisfied |
| RRIRARPPRLPRPRPRPPDEPRP | Satisfied |
| RRIRNRPPRLPRPRPRPGVQPRP | Satisfied |
| RRIRCRPPRLPRPRPRPINCPRP | Not satisfied |
| RRIRHRPPRLPRPRPRPQVIPRP | Not satisfied |
| RRIRERPPRLPRPRPRPQDIPRP | Not satisfied |
| RRIRRRPPRLPRPRPRPWYWPRP | Not satisfied |
